Cited source for all entries: patent US20220380801A1

# TARGET_DESC: HCV NS3/4A PR (S139A):simeprevir complex (Hepatitis C virus subtype 1a)
# PROTOCOL: SPR Biacore 8K, PRSIM immobilised, protease flowed with 10 nM simeprevir
I'd be grateful if you could share measured pKd for these entries.
Numbers only, as −log10 of the molar value.

[[record]]
binder = "PRSIM_33 (designed binder) RLDAPSQIEVKDVTDTTALITWYPPGRWYDDIWYFELTYGIKDVPGDRTTIKLARGDDVYSIGNLKPDTEYEVSLISWGPDRGDRAGSNPAKITFKTGL"
quantitative_readout = 8.08

[[record]]
binder = "PRSIM_36 (designed binder) RLDAPSQIEVKDVTDTTALITWSWPRDDDYDIWYFELTYGIKDVPGDRTTIKLLNYASPYSIGNLKPDTEYEVSLISVVPDTYGRGTSNPAKITFKTGL"
quantitative_readout = 8.01

[[record]]
binder = "PRSIM_32 (designed binder) RLDAPSQIEVKDVTDTTALITWWSPRYYYASISGFELTYGIKDVPGDRTTIKLDYASNDYSIGNLKPDTEYEVSLISWNYGDWRYSSSNPAKITFKTGL"
quantitative_readout = 7.80


Lab note: next binder to report on.
Query: Please give measured pKd of the following entry: PRSIM_47 (designed binder) RLDAPSQIEVKDVTDTTALITWSRPGVSIWYFELTYGIKDVPGDRTTIKLDYRSYYYSIGNLKPDTEYEVSLISGSYGLVGVRASNPAKITFKTGL
Reply: 8.41
